Test system: HCV replicon
Assay: Replicon based assay of HCV replication inhibition (NPT ELISA)
Type: cell-based, Hepatitis C virus
Details: Hepatitis C virus, Huh-7, 72 h, Table III; Huh-7 HCV replicon-containing cells, three days; read-out: Activity
Outcome measure: EC50

Answered examples (2):
CCCCCCCCOc1ccc(Nc2nc(-c3ccc(N(C)C)nc3)cs2)cc1C(F)(F)F :: < 1 µM
CCCCCOc1ccc(Nc2nc(/C=C/c3ccc(F)c(F)c3)cs2)cc1C(F)(F)F :: < 1 µM

Request: Please report EC50 for the following compound: `CCCCCCCCOc1ccc(Nc2nc(-c3ccc(S(N)(=O)=O)cc3)cs2)cc1C(F)(F)F`
Response: < 1 µM
